Please provide measured TGI for the entries that follow.
# Test system: SNB-19 CNS
# PROCEDURE DETAILS: NCI tumour cell line growth inhibition, 48 h

Q. Returns the measured TGI for the input compound. Input: CC(=O)OCCOCn1c2c(c(=O)[nH]c1=O)CCC2
A. > 100 µM

Q. // same read-out, input: NC1=NS(=O)(=O)Nc2nc(-c3ccc(Cl)cc3)[nH]c21
A. > 100 µM

Q. O=C(Nc1ccc(Cl)c(Cl)c1)C(=O)C(C(=O)c1ccccc1F)C1OC(=O)c2ccccc21 (stereo not given) , same question.
A. 47.8 µM

Q. COc1ccc(/C=c2/sc3n(c2=O)NC2(CCCCC2)NN=3)cc1 ?
A. > 100 µM

Q. What about O=C(Nc1ccccc1)c1cc(S(=O)(=O)n2cc[nH]c2=O)c(S)cc1Cl ?
A. > 100 µM

Q. Cool, now COC(=O)C1Cc2c([nH]c3ccccc23)C(c2ccccc2O)N1 (stereo not given)
A. > 100 µM

Q. Queued: CC1=C(C(=O)N[C@@H](CC(C)C)C(=O)O)N2C(=O)[C@@H](NC(=O)[C@@H](N)Cc3ccccc3)[C@H]2SC1
A. > 100 µM

Q. Consider next the compound CN(C(=O)CCC(=O)O)c1ccccc1C(=O)O in the same way.
A. > 100 µM

Q. What do we get for O=C1c2cc3ccccc3cc2C2(c3ccc(Cl)cc3)NCCN12 (stereo not given) ?
A. 68.9 µM

Q. Could you do the same for CC(=O)OCC1(C)C(OC(C)=O)CCC2(C)C(CC(OC(C)=O)C3=CCOC3=O)C(O)(CO)CCC12 (stereo not given) , please?
A. > 100 µM
